Reference for the values: PubChem BioAssay AID1159580

normalized growth for assorted compounds
experiment: chemical genetic growth profiling, strain panel (AID 1159580);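 also: tested at 20 µM; growth read once vehicle control cultures reached saturation at 30 °C; 1 = growth at the plate median or of vehicle wells; lower values mean less growth of the strain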; conditions: S. cerevisiae deletion strains, growth OD, locus YKL085W, strain MDH1, stronger effect = lower value
The whole screen tested about 5,500 compounds, of which about 2,000 (36%) were called active. Another 18% or so got no clear call; they are omitted. The list shows a part of the results.
measured quantity: normalized growth

{"compound": "O=C1C=C2C(=CCOC2O)O1 (stereo not drawn)", "measured quantity": "normalized growth", "result number": 0.868}
{"compound": "NC(=NCCC[C@H](N)C(=O)O)N[N+](=O)[O-]", "measured quantity": "normalized growth", "result number": 0.982}
{"compound": "CC(=O)Oc1ccc2c(c1C(C)C)CCC1C(C)(C)CCC[C@]21C (stereo partly drawn)", "measured quantity": "normalized growth", "result number": 1.01}
{"compound": "CO[C@@]1(NC(=O)C(C(=O)O)c2ccc(O)cc2)C(=O)N2C(C(=O)O)=C(CSc3nnnn3C)CO[C@@H]21 (stereo partly drawn)", "measured quantity": "normalized growth", "result number": 1.01}
{"compound": "C[C@@H]1CC[C@@]2(NC1)O[C@H]1C[C@H]3C4CC=C5C[C@@H](O)CC[C@]5(C)C4CC[C@]3(C)C1[C@@H]2C (stereo partly drawn)", "measured quantity": "normalized growth", "result number": 0.942}
{"compound": "CC1CCC2(OC1)OC1CC3C4CC[C@H]5C[C@@H](O)CC[C@]5(C)C4CC(=O)[C@]3(C)C1C2C (stereo partly drawn)", "measured quantity": "normalized growth", "result number": 0.989}
{"compound": "CCC1OC(=O)[C@H](C)C(=O)[C@H](C)[C@@H](OC2O[C@H](C)C[C@H](N(C)C)[C@H]2O)[C@](C)(OC)C2(CCCn3cnc(-c4cccnc4)c3)C[C@@H](C)C(=O)[C@H](C)[C@H]3N(C2)C(=O)O[C@]13C (stereo partly drawn)", "measured quantity": "normalized growth", "result number": 0.998}
{"compound": "CC(C)C1COc2cc3oc(=O)ccc3cc2O1 (stereo not drawn)", "measured quantity": "normalized growth", "result number": 0.945}
